Values compiled from PubChem BioAssay (NCI).

- System: MALME-3M melanoma
- Protocol Summary: NCI tumour cell line growth inhibition, 48 h
Observation Type: TGI

Using known records, supply TGI for COC1=C2C[C@](OC)(C#CC=CC#CC2O)CC1(C)C (stereo partly specified)
> 100 µM

Supply measured TGI of O=C(O)c1cccc(F)c1C(=O)c1ccc2ccccc2c1 in your reply.
> 100 µM

Return the recorded TGI value; entry: O=C1CCC(=O)C12CCc1ccccc12
> 100 µM

Consider the compound Cn1c(=O)c2nc3sc4ccccc4c(=N)n3c2n(C)c1=O and give its recorded TGI.
> 100 µM

Provide one value: measured TGI of CC(C)N=C(NC#N)NS(=O)(=O)c1cnccc1NC1CCCCCCC1
> 100 µM

Tell me TGI reported for O=C1OCC(CN2CCC(n3c(=O)[nH]c4ccccc43)CC2)=C1c1ccccc1
56.6 µM

* * *

- Test system: ACHN renal
- Protocol Summary: NCI tumour cell line growth inhibition, 48 h
Observation Type: TGI

Consider the compound COC(=O)C1=C(C(=O)OC)C2CCC1CC2=O (stereo unspecified) . State its measured TGI.
> 100 µM

Retrieve TGI measured for OC1/C(=C/c2ccccc2)CNC/C1=C\c1ccccc1 (stereo unspecified) and print it.
> 100 µM

Given the compound COc1ccc(C2=Nn3c(C)nnc3S/C2=C\c2ccc(-c3ccc([N+](=O)[O-])cc3)o2)cc1 , write its reported TGI.
25.3 µM

Find the measured TGI of OC1OC2COC(c3ccccc3)OC2C(O)C1O (stereo unspecified) and report it.
> 100 µM

Return the recorded TGI value; entry: O=CN/C=C\c1cc(O)ccc1O
28.2 µM

Hello, please tell me recorded TGI for this one: CCOC(=O)C1=CN(Cc2ccccc2)C2ON=C(c3ccc(Cl)cc3)C2C1 (stereo unspecified)
> 65.2 µM

* * *

- Test system: ACHN renal
- Protocol Summary: NCI tumour cell line growth inhibition, 48 h; in the data active = GI50 below about 0.43 µM; inactive = the rest
The categories you may choose from are 1 = active, 0 = inactive

Name the outcome recorded for Cc1nc(N(C)C)nc(-c2cccc(-c3ccn(CCN(C)C)n3)c2)c1C in the assay.
0

What did this assay record as the result for COc1ccc(-n2cc(-c3ccc(F)cc3)[nH]c2=O)cc1OC ?
0

Could you check what this test reported for O=c1c(Br)ccc(Br)cc1Br ?
0

Record lookup: outcome of this test for Nc1c(S(=O)(=O)O)cc2c(c1Cl)C(=O)c1ccccc1C2=O ?
0

Write down the call the test reported for this compound. Item: CCCCCCOc1ccc(/C=N/Nc2cc(C)nc3ccc(Br)cc23)cc1
0

Please indicate how the test categorized O=C(Nc1ccc(-n2cc(-c3ccncc3)c(-c3ccc(Cl)c(O)c3)n2)cc1)c1ccc(Cl)c(C(F)(F)F)c1 .
0

// return assay outcome for COc1cc(-c2nc3cc(Cl)c(Cl)cc3[nH]2)ccc1OCC(=O)N=Nc1c(O)[nH]c2ccccc12
0

Outcome? CCOc1ccc(-n2cc(-c3ccc(N(C)C)cc3)[n+]3c2CCCCC3)cc1
0

Dear colleague, could you share the recorded outcome for Nc1nc(-c2ccccc2Cl)cc(-c2ccc(Cl)cc2Cl)n1 when you have a moment?
0

For this compound, state the assay outcome: O=C(/C=C/c1ccco1)c1cccc(Nc2nc(Nc3ccccc3)nc(Nc3ccccc3)n2)c1
0

// outcome(item) with item = COc1cc(Nc2nccc(-c3cnn4ncccc34)n2)cc(OC)c1
1

Record request — test call for O=[N+]([O-])c1ccc(N/N=C\c2ccc(O)cc2O)nc1
0

Recorded call for OC(c1cc2c(Cl)cc(Cl)cc2c2cc(C(F)(F)F)ccc12)C1CCCCN1 (configuration not stated) ?
0

Record request — test call for COc1ccc2c(c1)cn1c3ccc(OC)cc3[nH]c(=O)c21
1

Hi, do you know how O=C1/C=C/[C@@H](O)[C@@H]2C[C@@H](O)C[C@H]2/C=C/CCCCO1 came out in this test?
0

Assay outcome for O=C1COCCN1c1ccc(NCc2cn(Cc3ccc(F)cc3)c3ccccc23)cc1 : what was it?
0

Could you kindly confirm the outcome this assay logged for Cc1cnc2n(c1=O)Cc1ccccc1CO2 ?
0

* * *

- System: 786-0 renal
- Protocol Summary: NCI tumour cell line growth inhibition, 48 h; in the data active = GI50 below about 0.43 µM; inactive = the rest
Please state which outcome applies, choosing from active, inactive

# fetch the recorded call for COc1ccc2nc3c(cc2c1)C(=O)CC(C(F)(F)F)C3 (stereo not given) here
inactive

// outcome(item) with item = COc1ccc(-c2nn(C(=O)c3cc(OC)c(OC)c(OC)c3)c3cc(N)ccc23)cc1
active

What outcome does the record of this test show for CN(Cc1cccc(Cl)c1)c1ccc(CO)c(Cl)c1 ?
inactive

Entry CCc1cc(Cc2cc(CC)cc(C(C)(C)C)c2O)c(O)c(C(C)(C)C)c1 : call = ?
inactive

Answer briefly: the call reported for C=CCOc1ccc2c(c1)CC[C@@H]1[C@@H]2CC[C@]2(C)C(=O)/C(=N/O)C[C@@H]12 in this assay.
inactive

* * *

- Tested on: RXF 393 renal
- Protocol Summary: NCI tumour cell line growth inhibition, 48 h
Please respond with reported TGI for every item in the list.

Give TGI for COc1cc(/C=C/C(=O)c2ccc(SC)cc2)cc(OC)c1OC
7.01 µM

Identify the reported TGI for the following entry. CC1=NN(c2cccc(S(=O)(=O)O)c2)C2(C1)SCC(=O)N2c1nc2ccccc2s1 (stereo not drawn)
> 100 µM

Give me measured TGI, please, for this compound: O=C1COCCN1c1ccc(NCc2cn(Cc3ccc(F)cc3)c3ccccc23)cc1
5.76 µM

Look up and state reported TGI for FC1(F)SC2CCCCCCCCCCC2C1(F)F (stereo not drawn)
54 µM

Return the recorded TGI value; entry: CC(=O)NC1C(OCc2ccccc2)OC(COC(=O)CCCCCCCCCCNC(=O)CCNc2ccc([N+](=O)[O-])c3[nH]c4ccc(O)cc4c(=O)c23)C(O)C1OC(C)C(=O)N[C@H](C(=O)N[C@H](CCC(=O)O)C(N)=O)C(C)C (stereo partly drawn)
> 100 µM

Provide TGI value for the following compound: NC(CSC(c1ccccc1)(c1ccccc1)c1ccc(Br)cc1)C(=O)O (stereo not drawn)
> 35.6 µM

Quote TGI reported for O=C(CN1CCOCC1)c1ccc2c(c1)oc(=O)n2CCN1CCCCC1 please.
> 100 µM

Provide measured TGI value, entry: COC(=O)C(Cc1cc(OC)c(OC)c(OC)c1)(NC(=O)c1ccccc1)P(=O)(OC)OC (stereo not drawn)
> 100 µM

* * *

- System: PC-3 prostate
- Protocol Summary: NCI tumour cell line growth inhibition, 48 h; in the data active = GI50 below about 0.43 µM; inactive = the rest
Your reply should match one of these outcome classes. active, inactive

Per the records of this test, what outcome belongs to Nc1c2c(c(O)c3c1=C(CO)C=N3)=NCCS2=O (stereo unspecified) ?
inactive

Could you check what this test reported for COc1ccc2c(c1)cn1c3ccc(OC)cc3[nH]c(=O)c21 ?
active

Look up the recorded call for COc1cc(/C=C/C(=O)c2ccc(SC)cc2)cc(OC)c1OC in this test.
inactive

Please indicate how the test categorized C=C(C=O)[C@@H]1CC=C(C=O)CC1 .
inactive

For COc1cc(Nc2nccc(-c3cnn4ncccc34)n2)cc(OC)c1 , what call appears in the results of this test?
active

// param item: O=c1c(-c2nc3ccccc3[nH]2)cc2ccccc2n1Cc1cn(Cc2ccc(F)cc2)nn1 ; yields the recorded call
active

What outcome does the record of this test show for CN(Cc1cccc(Cl)c1)c1ccc(CO)c(Cl)c1 ?
inactive

Look up the recorded call for CCCCCCCCCCCC(=O)[O][Sn]([CH2]CCC)([CH2]CCC)[CH2]CCC in this test.
active

I'd appreciate the recorded outcome for c1ccc(Oc2cnc3ccccc3n2)cc1 from this test.
inactive

Record lookup: outcome of this test for COc1ccc(S(=O)(=O)Nc2c(/C=C\c3cc(OC)c(OC)c(OC)c3)ccc(OC)c2O)cc1OC ?
active

Record lookup: outcome of this test for COc1ccc(-c2nn(C(=O)c3cc(OC)c(OC)c(OC)c3)c3cc(N)ccc23)cc1 ?
active

Hi team, can someone confirm the assay call for Cc1cnc2n(c1=O)Cc1ccccc1CO2 ?
inactive

Please state the recorded outcome for this compound: COc1cc2c(cc1OC)-c1c(c3ccc([N+](=O)[O-])cc3c(=O)n1CCCBr)C2=O
inactive

# outcome recorded in this test, key = Cn1cc(C2=C(c3cn(CCCN/C(N)=N\[N+](=O)[O-])c4ccccc34)C(=O)NC2=O)c2ccccc21
inactive

Hey, what did the test say about O=C1COCCN1c1ccc(NCc2cn(Cc3ccc(F)cc3)c3ccccc23)cc1 ?
inactive

Fill in: this test's call for O=[N+]([O-])c1ccc(N/N=C\c2ccc(O)cc2O)nc1 is ___
inactive

* * *

- Test system: DU-145 prostate
- Protocol Summary: NCI tumour cell line growth inhibition, 48 h
Task for the reader: assign each of the following compounds its reported TGI.

State its TGI: CCc1cc(Cc2cc(CC)cc(C(C)(C)C)c2O)c(O)c(C(C)(C)C)c1
13 µM

Please give measured TGI of the following entry: CCOC(=O)CCNC(=O)c1cc(C)cc2c1Oc1c(cc(C)cc1C(=O)NCCC(=O)OCC)S2
> 100 µM

For the compound COC(=O)Cc1c(-c2c(CC(=O)OC)c3ccccc3n2C2OC(COC3OC(COC(C)=O)C(OC(C)=O)C(OC(C)=O)C3OC(C)=O)C(O)C(O)C2O)[nH]c2ccccc12 (stereo not given) , give its reported TGI.
> 100 µM

Tell me measured TGI for CNC(=S)c1nnsc1N please.
> 100 µM

# return recorded TGI for entry FC1(F)SC2CCCCCCCCCCC2C1(F)F (stereo not given)
> 100 µM
